# Tested on: HOP-62 NSCLC
# protocol summary: NCI tumour cell line growth inhibition, 48 h
parameter measured: TGI (µM)
Report the value in µM with no unit label.

Dear colleague, I am looking for the recorded TGI of the following molecule: `CCCCCCCCCCCCCCCCCCNC(=S)/N=C\C1=C(O)c2ccccc2C1=O` 22.2

Dear colleague, I am looking for the recorded TGI of the following molecule: `C=C(CCC/C(C)=C/C=C/[C@@H](C)CCCc1ccoc1)C[C@@H]1OC(=O)[C@H](C)[C@@H]1O` 18.3

Dear colleague, I am looking for the recorded TGI of the following molecule: COc1ccccc1C1ON=C(c2ccc([N+](=O)[O-])cc2)N1C12CC3CC(CC(C3)C1)C2 (stereo unspecified) 71.9

Dear colleague, I am looking for the recorded TGI of the following molecule: Cc1ccc(NC(=O)CC2Sc3ccccc3NC2=O)c(C)c1 (stereo unspecified) 34

Dear colleague, I am looking for the recorded TGI of the following molecule: `O=C(COc1cc(O)c2c(=O)cc(-c3ccccc3)oc2c1)Nc1ccccc1C(F)(F)F` 8.19

Dear colleague, I am looking for the recorded TGI of the following molecule: `O=C(Nc1ccc(-n2ccc3c(NC(=O)c4ccccc4)ncnc32)cc1)Nc1ccc(Cl)c(Cl)c1` 7.44

----------
# System: MALME-3M melanoma
# protocol summary: NCI tumour cell line growth inhibition, 48 h
parameter measured: TGI

Dear colleague, I am looking for the recorded TGI of the following compound: COc1cc(C2c3cc4c(cc3OC(NNS(=O)(=O)c3ccc(C)cc3)C2C)OCO4)cc(OC)c1O (stereo not given) 25 µM

Dear colleague, I am looking for the recorded TGI of the following compound: NCC1OC(n2cnc3c(N)ncnc32)CC1O (stereo not given) > 100 µM

Dear colleague, I am looking for the recorded TGI of the following compound: `CS(=O)(=O)CCc1cccc(C(=O)c2cnn(-c3ccc(F)cc3)c2N)c1` > 25 µM

Dear colleague, I am looking for the recorded TGI of the following compound: `CNC(=O)c1ccccc1Nc1nc(Nc2cc(OC)c(OC)c(OC)c2)ncc1Br` 1.79 µM

Dear colleague, I am looking for the recorded TGI of the following compound: O=C1CSC(c2ccccc2[N+](=O)[O-])N1c1ccc(-c2ccc(-n3c(-c4ccccc4)nc4ccccc4c3=O)cc2)cc1 (stereo not given) > 100 µM

Dear colleague, I am looking for the recorded TGI of the following compound: `Nc1c(C(=O)Nc2cccc(F)c2)sc2nc3c(cc12)C(=O)CCC3` > 100 µM

Dear colleague, I am looking for the recorded TGI of the following compound: CC1CCCC(C(O)CC2CC(=O)NC(=O)C2)C1O (stereo not given) > 100 µM

Dear colleague, I am looking for the recorded TGI of the following compound: `Cn1cnc([N+](=O)[O-])c1Sc1nccn1-c1cccc2ccccc12` 42.2 µM

Dear colleague, I am looking for the recorded TGI of the following compound: `CS(=O)(=O)c1ccc(N=C/C=C/Nc2ccc(S(C)(=O)=O)cc2)cc1` > 100 µM

Dear colleague, I am looking for the recorded TGI of the following compound: CC12CCC3(OCCO3)C(OC(=O)c3ccccc3)=C1CCC21OCCO1 (stereo not given) > 100 µM

----------
# Tested on: SK-MEL-28 melanoma
# protocol summary: NCI tumour cell line growth inhibition, 48 h
parameter measured: TGI

Dear colleague, I am looking for the recorded TGI of the following molecule: `CCOc1ccc(N/C(=C(/C(Cl)=C(/Cl)N2CCCCC2)[N+](=O)[O-])n2nnc3ccccc32)cc1` 34.2 µM

Dear colleague, I am looking for the recorded TGI of the following molecule: CC(Nc1ccc(S(=O)(=O)N=C(N)N)cc1)c1c2ccccc2nc2ccccc12 (stereo unspecified) > 100 µM

Dear colleague, I am looking for the recorded TGI of the following molecule: CCC[CH2][Sn]1([CH2]CCC)[O]CC(CN(C)Cc2ccccc2)[O]1 (stereo unspecified) 26.5 µM

Dear colleague, I am looking for the recorded TGI of the following molecule: `CCCCCCCCCCCCCCCCCCNC(=S)/N=C\C1=C(O)c2ccccc2C1=O` 30.7 µM

Dear colleague, I am looking for the recorded TGI of the following molecule: `CS(=O)(=O)c1ccc(N=C/C=C/Nc2ccc(S(C)(=O)=O)cc2)cc1` > 100 µM

Dear colleague, I am looking for the recorded TGI of the following molecule: `CC(=O)NC1(c2cc3ccccc3s2)CCCCCC1` > 100 µM

Dear colleague, I am looking for the recorded TGI of the following molecule: CC(=O)C1C(c2ccc(N(C)C)cc2)c2cc3c(cc2OC1(C)O)OCO3 (stereo unspecified) > 100 µM

Dear colleague, I am looking for the recorded TGI of the following molecule: Cc1cccc(C)c1NC(=O)C1C(=O)N(c2c(C)cccc2C)C(=O)/C1=N\N (stereo unspecified) > 100 µM

Dear colleague, I am looking for the recorded TGI of the following molecule: `O=c1cc(-c2cccc3c2Sc2ccccc2S3)oc(N2CCOCC2)c1` 24.1 µM

Dear colleague, I am looking for the recorded TGI of the following molecule: `COc1ccc2c(=O)cc(C(Cl)(Cl)Cl)oc2c1` 23.2 µM

Dear colleague, I am looking for the recorded TGI of the following molecule: `CN(C)CCn1c(=O)c2ccc(NCCN3CCNCC3)c3c(=O)c4ccccc4n(c1=O)c23` 25.5 µM

Dear colleague, I am looking for the recorded TGI of the following molecule: `CC(=O)OC(C)(C)/C(C)=C/C(=O)O[C@H]1C(=O)O[C@@H]2C[C@H]3[C@H](C)C(=O)C(O[C@@H]4O[C@H](CO)[C@@H](O)[C@H](O)[C@H]4O)=C[C@]3(C)[C@H]3[C@@H](O)[C@H](O)[C@@]4(C(=O)O)OC[C@]32[C@@H]14` > 100 µM

Dear colleague, I am looking for the recorded TGI of the following molecule: `O=c1[nH]nc(-c2ccccc2)n1/N=C/c1cccs1` > 100 µM

Dear colleague, I am looking for the recorded TGI of the following molecule: O=C1CSC(c2ccccc2[N+](=O)[O-])N1c1ccc(-c2ccc(-n3c(-c4ccccc4)nc4ccccc4c3=O)cc2)cc1 (stereo unspecified) > 100 µM

Dear colleague, I am looking for the recorded TGI of the following molecule: `CN(Cc1ccccc1)c1ccc(CO)c(Cl)c1` > 100 µM

Dear colleague, I am looking for the recorded TGI of the following molecule: COC(=O)C(Cc1c[nH]c2ccccc12)NC(=O)c1ccc(-c2ccc(Cl)cc2Cl)o1 (stereo unspecified) > 100 µM

----------
# System: LOX IMVI melanoma
# protocol summary: NCI tumour cell line growth inhibition, 48 h
parameter measured: TGI

Dear colleague, I am looking for the recorded TGI of the following compound: `C/C(=N\NS(=O)(=O)c1ccc(C)cc1)P(=O)(O)O` > 100 µM

Dear colleague, I am looking for the recorded TGI of the following compound: `O=C1C=CC(=Nc2cc(Br)c(O)c(Br)c2)C=C1` 66.6 µM

Dear colleague, I am looking for the recorded TGI of the following compound: `O=[N+]([O-])C(=C(N1CCOCC1)N1CCOCC1)/C(Cl)=C(\Cl)Br` 41.1 µM

Dear colleague, I am looking for the recorded TGI of the following compound: `COc1ccccc1-c1cc(=O)c2cc3c(cc2[nH]1)OCO3` > 100 µM

Dear colleague, I am looking for the recorded TGI of the following compound: `Nc1nnnn1CCO` > 100 µM

Dear colleague, I am looking for the recorded TGI of the following compound: `CC(C)N=C(N)NC#N` > 100 µM

Dear colleague, I am looking for the recorded TGI of the following compound: CC12CCC3(OCCO3)C(OC(=O)c3ccccc3)=C1CCC21OCCO1 (configuration not stated) > 100 µM

----------
# System: CCRF-CEM leukemia
# protocol summary: NCI tumour cell line growth inhibition, 48 h
parameter measured: TGI

Dear colleague, I am looking for the recorded TGI of the following molecule: CC(=O)C1C(c2ccc(N(C)C)cc2)c2cc3c(cc2OC1(C)O)OCO3 (centres undefined) > 100 µM

Dear colleague, I am looking for the recorded TGI of the following molecule: `CC(=O)c1c(C)[nH]c(-c2nc3ccc(N4CCN(C)CC4)cc3[nH]2)c1-c1ccc(N(C)C)cc1` > 37.7 µM

Dear colleague, I am looking for the recorded TGI of the following molecule: `O=C1C(=O)N(c2cccc(C(F)(F)F)c2)C(=S)N1c1ccccc1` > 100 µM

Dear colleague, I am looking for the recorded TGI of the following molecule: `C#Cc1c(/C=C/C(=O)OCC)ccc2ccccc12` 30.9 µM

Dear colleague, I am looking for the recorded TGI of the following molecule: CC1(C)Cc2nc3c(cc2C(=O)C1C=N/C(C#N)=C(\N)C#N)C(=O)C(C=N/C(C#N)=C(\N)C#N)C(C)(C)C3 (centres undefined) > 100 µM

Dear colleague, I am looking for the recorded TGI of the following molecule: CC(=O)OC[C@@H](COC(=O)/C=C/c1ccc(O)cc1)OC1OC(CO)C(O)C(O)C1O (some centres undefined) > 100 µM

Dear colleague, I am looking for the recorded TGI of the following molecule: `NCCCCCCCn1c2c(c3ccccc3c1=O)C(=O)c1ccccc1-2` 2.19 µM

Dear colleague, I am looking for the recorded TGI of the following molecule: CCC[CH2][Sn]1([CH2]CCC)[O]CC(CN(C)Cc2ccccc2)[O]1 (centres undefined) 8.09 µM

Dear colleague, I am looking for the recorded TGI of the following molecule: `COc1ccccc1-c1cc(=O)c2cc3c(cc2[nH]1)OCO3` > 100 µM

Dear colleague, I am looking for the recorded TGI of the following molecule: `O=C(CN1CCOCC1)c1ccc2c(c1)oc(=O)n2CCN1CCOCC1` > 100 µM

Dear colleague, I am looking for the recorded TGI of the following molecule: `CN(/N=C/c1cccc2cccnc12)c1ccc(Cl)cc1[N+](=O)[O-]` > 100 µM

Dear colleague, I am looking for the recorded TGI of the following molecule: `O=c1[nH]nc(-c2ccccc2)n1/N=C/c1cccs1` > 100 µM

Dear colleague, I am looking for the recorded TGI of the following molecule: Nc1nc2ncc(CNc3ccc(C(=O)NC(CCC(=O)O)C(=O)O)cc3)nc2c(=O)[nH]1 (centres undefined) > 100 µM

Dear colleague, I am looking for the recorded TGI of the following molecule: Cc1ccc(NC(=O)CC2Sc3ccccc3NC2=O)c(C)c1 (centres undefined) 78.4 µM

Dear colleague, I am looking for the recorded TGI of the following molecule: `Nc1c(C(=O)Nc2cccc(F)c2)sc2nc3c(cc12)C(=O)CCC3` > 100 µM

Dear colleague, I am looking for the recorded TGI of the following molecule: `Cc1ccc(/C(O)=C/C(=O)C(=O)NC23CC4CC(CC(C4)C2)C3)cc1` > 10 µM

Dear colleague, I am looking for the recorded TGI of the following molecule: `Cc1ccc(S(=O)(=O)Oc2nc3ccccc3nc2OS(=O)(=O)c2ccc(C)cc2)cc1` > 100 µM

Dear colleague, I am looking for the recorded TGI of the following molecule: O=c1ncc(F)cn1C1OC(CO)C(O)C1O (centres undefined) > 63.6 µM

Dear colleague, I am looking for the recorded TGI of the following molecule: `C=CCN(C(=O)OC(C)(C)C)[C@H](C)C(=O)N[C@@H](C)C(=O)OC` > 100 µM
